Target: Ubiquitin carboxyl-terminal hydrolase 19 (Homo sapiens)
Sequence (O94966 whole entry): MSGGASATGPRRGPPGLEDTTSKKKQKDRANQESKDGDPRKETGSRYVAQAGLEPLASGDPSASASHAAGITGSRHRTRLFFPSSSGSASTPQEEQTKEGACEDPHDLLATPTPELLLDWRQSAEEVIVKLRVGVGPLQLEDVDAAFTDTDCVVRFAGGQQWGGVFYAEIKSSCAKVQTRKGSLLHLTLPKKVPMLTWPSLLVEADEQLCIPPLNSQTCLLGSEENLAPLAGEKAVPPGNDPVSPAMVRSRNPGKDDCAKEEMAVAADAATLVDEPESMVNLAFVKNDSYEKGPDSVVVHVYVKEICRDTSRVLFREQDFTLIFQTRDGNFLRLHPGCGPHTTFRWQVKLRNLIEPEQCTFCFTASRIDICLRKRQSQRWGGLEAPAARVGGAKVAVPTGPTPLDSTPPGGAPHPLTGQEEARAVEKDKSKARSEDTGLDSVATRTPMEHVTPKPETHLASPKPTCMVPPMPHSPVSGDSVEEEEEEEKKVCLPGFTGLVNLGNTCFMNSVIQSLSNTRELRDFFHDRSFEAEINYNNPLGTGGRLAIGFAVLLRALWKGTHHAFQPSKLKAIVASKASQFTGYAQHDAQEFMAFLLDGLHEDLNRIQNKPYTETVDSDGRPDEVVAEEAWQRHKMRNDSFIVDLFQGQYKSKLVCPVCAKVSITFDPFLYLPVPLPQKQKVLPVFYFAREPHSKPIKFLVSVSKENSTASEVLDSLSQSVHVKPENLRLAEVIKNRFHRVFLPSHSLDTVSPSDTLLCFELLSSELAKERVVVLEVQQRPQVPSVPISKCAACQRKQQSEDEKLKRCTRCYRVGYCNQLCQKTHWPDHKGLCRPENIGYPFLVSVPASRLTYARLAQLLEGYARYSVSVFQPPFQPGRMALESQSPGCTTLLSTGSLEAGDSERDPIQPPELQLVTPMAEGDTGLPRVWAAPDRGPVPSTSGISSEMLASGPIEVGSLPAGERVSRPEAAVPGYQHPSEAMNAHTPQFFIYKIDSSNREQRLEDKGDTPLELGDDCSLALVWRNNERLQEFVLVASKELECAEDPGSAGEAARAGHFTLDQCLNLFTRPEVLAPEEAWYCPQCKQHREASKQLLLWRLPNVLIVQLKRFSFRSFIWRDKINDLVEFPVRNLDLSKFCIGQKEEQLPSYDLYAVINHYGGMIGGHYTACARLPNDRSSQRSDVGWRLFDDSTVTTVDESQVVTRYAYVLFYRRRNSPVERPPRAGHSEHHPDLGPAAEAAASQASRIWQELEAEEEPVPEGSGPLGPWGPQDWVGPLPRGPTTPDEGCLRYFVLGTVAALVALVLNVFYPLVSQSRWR
Assay: Inhibition of USP19 (unknown origin) in neuroblastoma cell measured by cell target engagement assay
Type: cell-based

# compound, EC50, nM
data = [
    ("C[C@H](CC1CCCCC1)C(=O)N1CC[C@@](O)(Cn2cc(C(=O)N3CCNCC3)c(-c3ccccc3)cc2=O)C2(CCCC2)C1", 32.8),
]
